system: corn (Zea mays); experiment: Test C preemergence; format: in vivo; conditions: preemergence; Rate 250 g/ha; scale 0 to 100, 0 no effect, 100 complete control
Lab note: anything with Plant response rating, Corn at or over 40 counts as 1 (yes); the rest go in 0 (no).

A selection of reference data follows.
Item CCC(C)c1ccn(C2OCN(c3cccc(OC(F)F)c3)C2=O)n1 (stereo not shown) with Plant response rating, Corn of 40 or above? 1 (yes)

Is Plant response rating, Corn for CCCC(C)c1ccn(C2OCN(c3cccc(C(F)(F)F)c3)C2=O)n1 (stereo not shown) at or above 40? 0 (no)

Hi team, for CCCC(C)c1ccn(C2CCN(c3cccc(C(F)(F)F)c3)C2=O)n1 (stereo not shown) , is the recorded Plant response rating, Corn at or above 40? 0 (no)

***
Is the recorded value of Plant response rating, Corn equal to or greater than 40 for this compound? CCC(CC)c1ccn(C2OCN(c3cccc(OC(F)F)c3)C2=O)n1 (stereo not shown) 1 (yes)

Reported Plant response rating, Corn at or above 40? CCC(CC)c1ccn(C2CCN(c3ccc(Br)c(OC)c3)C2=O)n1 (stereo not shown) 0 (no)

Is reported Plant response rating, Corn greater than or equal to 40 here: Cc1ccc(N2CCC(n3ccc(C(C)(C)C)n3)C2=O)cc1I (stereo not shown) 0 (no)
